Target: UniProt:Q8A331
Sequence (Q8A331 whole entry): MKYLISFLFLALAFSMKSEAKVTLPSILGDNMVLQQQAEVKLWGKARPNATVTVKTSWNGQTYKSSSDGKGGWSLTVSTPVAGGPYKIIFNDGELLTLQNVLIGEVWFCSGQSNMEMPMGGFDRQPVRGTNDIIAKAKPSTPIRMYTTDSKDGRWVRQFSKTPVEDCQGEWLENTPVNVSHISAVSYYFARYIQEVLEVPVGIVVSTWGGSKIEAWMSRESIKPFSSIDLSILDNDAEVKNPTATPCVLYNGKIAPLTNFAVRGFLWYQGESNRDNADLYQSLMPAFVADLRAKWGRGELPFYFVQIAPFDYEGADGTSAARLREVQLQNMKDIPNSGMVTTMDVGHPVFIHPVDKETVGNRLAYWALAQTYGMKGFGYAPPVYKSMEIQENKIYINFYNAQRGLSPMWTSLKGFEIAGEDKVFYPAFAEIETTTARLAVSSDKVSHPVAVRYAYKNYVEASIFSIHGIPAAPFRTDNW
Assay: The drug is tested on Bacteroides thetaiotaomicron strain: VPI-5482 for biotransformation. The drug concentrations were measured before and after a 12-h incubation by liquid-chromatography-coupled mass spectrometry (LC–MS)
Type: ADME
Set-up: dose 2 uM
Conditions: 2 µM

# compound, Bacterial Biotransformation
rows = [
    ("O=C(O)c1cc(/N=N/c2ccc(S(=O)(=O)Nc3ccccn3)cc2)ccc1O", "Compound NOT metabolized"),
    ("Nc1ccc(/N=N/c2ccccc2)c(N)n1", "Compound NOT metabolized"),
    ("CC(=O)OCC(=O)NCCCOc1cccc(CN2CCCCC2)c1 [ROXATIDINE ACETATE]", "Compound NOT metabolized"),
    ("C[C@@H]1CC[C@H]2[C@@H](C)C(=O)O[C@@H]3O[C@@]4(C)CC[C@@H]1[C@]32OO4", "Compound NOT metabolized"),
]

---

Conditions: anaerostipes sp., 12 h, 2 µM
Description: The drug is tested on Anaerostipes sp. strain: fecal isolate for biotransformation. The drug concentrations were measured before and after a 12-h incubation by liquid-chromatography-coupled mass spectrometry (LC–MS)
measurementKind: Bacterial Biotransformation

The cases that follow already have their Bacterial Biotransformation on record.
# compound, endpointResult
measured = [
    ("CCCc1nc(C(C)(C)O)c(C(=O)OCc2oc(=O)oc2C)n1Cc1ccc(-c2ccccc2-c2nnn[nH]2)cc1", "Compound metabolized"),
    ("COc1ccc(Cc2nccc3cc(OC)c(OC)cc23)cc1OC", "Compound NOT metabolized"),
    ("CCN(CC)C(C)CN1c2ccccc2Sc2ccccc21 (stereo unspecified)", "Compound NOT metabolized"),
    ("CCS(=O)(=O)CCn1c([N+](=O)[O-])cnc1C", "Compound metabolized"),
    ("CCCCC(=O)O[C@]1(C(=O)CO)[C@@H](C)C[C@H]2[C@@H]3CCC4=CC(=O)C=C[C@]4(C)[C@@]3(F)[C@@H](O)C[C@@]21C [BETAMETHASONE VALERATE]", "Compound NOT metabolized"),
]

Query Nc1ccc(/N=N/c2ccccc2)c(N)n1 yields Bacterial Biotransformation of Compound metabolized

Query CC(C)(C)NC(=O)[C@H]1CC[C@H]2[C@@H]3CC[C@H]4NC(=O)C=C[C@]4(C)[C@H]3CC[C@]12C [FINASTERIDE] yields Bacterial Biotransformation of Compound NOT metabolized

---

Assay: The drug is tested on Odoribacter splanchnicus strain: fecal isolate for biotransformation. The drug concentrations were measured before and after a 12-h incubation by liquid-chromatography-coupled mass spectrometry (LC–MS)
Settings: 2 µM
measurementKind: Bacterial Biotransformation

The cases that follow already have their Bacterial Biotransformation on record.
# molecule, Bacterial Biotransformation
data = [
    ("CC(Oc1c(Cl)cccc1Cl)C1=NCCN1 (configuration not stated)", "Compound metabolized"),
    ("CCN(CC)C(=O)C1(c2ccccc2)CC1CN (configuration not stated)", "Compound NOT metabolized"),
    ("Cc1ccc(S(=O)(=O)NC(=O)NN2CCCCCC2)cc1 [TOLAZAMIDE]", "Compound metabolized"),
    ("CN(C)CCc1c[nH]c2ccc(CS(=O)(=O)N3CCCC3)cc12", "Compound NOT metabolized"),
    ("C#C[C@]1(O)CC[C@H]2[C@@H]3CCC4=CC(=O)CC[C@@H]4[C@H]3CC[C@@]21CC", "Compound metabolized"),
    ("COc1ccc(C(CN(C)C)C2(O)CCCCC2)cc1 (configuration not stated)", "Compound NOT metabolized"),
]

Let's switch to this molecule now.
Query CC(=O)Oc1ccc(C(c2ccc(OC(C)=O)cc2)c2ccccn2)cc1 yields Bacterial Biotransformation of Compound metabolized
